SYSTEM_UNDER_TEST: TG1 (Homo sapiens, UniProt P22735)
Sequence (P22735 whole entry): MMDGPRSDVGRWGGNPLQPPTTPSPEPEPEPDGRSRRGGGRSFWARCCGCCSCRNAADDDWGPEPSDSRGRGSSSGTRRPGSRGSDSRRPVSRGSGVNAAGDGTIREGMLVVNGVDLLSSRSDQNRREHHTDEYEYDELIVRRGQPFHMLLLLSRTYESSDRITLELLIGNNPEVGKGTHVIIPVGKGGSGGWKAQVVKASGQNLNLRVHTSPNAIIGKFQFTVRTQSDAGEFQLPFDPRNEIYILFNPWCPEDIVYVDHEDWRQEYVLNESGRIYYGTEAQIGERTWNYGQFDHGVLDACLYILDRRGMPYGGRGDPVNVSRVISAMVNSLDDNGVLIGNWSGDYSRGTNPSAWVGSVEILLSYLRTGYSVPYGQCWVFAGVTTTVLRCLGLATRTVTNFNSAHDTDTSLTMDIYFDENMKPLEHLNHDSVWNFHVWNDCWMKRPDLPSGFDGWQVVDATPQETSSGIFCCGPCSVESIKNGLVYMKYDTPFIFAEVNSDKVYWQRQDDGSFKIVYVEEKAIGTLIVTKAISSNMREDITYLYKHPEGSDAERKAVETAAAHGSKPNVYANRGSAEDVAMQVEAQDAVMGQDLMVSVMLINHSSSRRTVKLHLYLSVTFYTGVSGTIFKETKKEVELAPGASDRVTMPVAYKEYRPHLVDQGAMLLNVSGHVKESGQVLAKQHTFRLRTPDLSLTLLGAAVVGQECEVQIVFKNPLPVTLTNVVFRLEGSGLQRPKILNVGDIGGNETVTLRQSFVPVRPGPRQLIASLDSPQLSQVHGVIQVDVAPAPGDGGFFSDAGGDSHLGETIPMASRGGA
ASSAY_OVERVIEW: glutamate dehydrogenase-coupled deamidation assay, substrate Cbz-Gln-Ser
Type: biochemical
MEASUREMENT_CONTEXT: irreversible inhibition model, full progress curves
Could you label it Y if measured kinh/Ki TG1 is 600 M⁻¹ s⁻¹ or higher, and N otherwise?

- COMPOUND: "O=C(NC[C@@H]1CC(Br)=NO1)[C@@H]1C[C@@H](c2cccc(O)c2)CN1C(=O)OCc1cnc2ccccc2c1 [Compound 11]"
  QUALITATIVE_LABEL: "Y"
- COMPOUND: "O=C(N[C@@H]1C[C@@H](C(=O)NC[C@@H]2CC(Br)=NO2)N(C(=O)OCc2cnc3ccccc3c2)C1)c1cnccn1 [Compound 6]"
  QUALITATIVE_LABEL: "N"
- COMPOUND: "O=C(N[C@@H]1C[C@@H](C(=O)NC[C@@H]2CC(Br)=NO2)N(C(=O)OCc2cnc3ccccc3c2)C1)c1ccccc1O [Compound 2]"
  QUALITATIVE_LABEL: "N"
- COMPOUND: "O=C(NC[C@@H]1CC(Br)=NO1)[C@@H]1C[C@@H](c2c[nH]c3ccc(F)cc23)CN1C(=O)OCc1cnc2ccccc2c1 [Compound 15]"
  QUALITATIVE_LABEL: "Y"
- COMPOUND: "O=C(NC[C@@H]1CC(Br)=NO1)[C@@H]1C[C@@H](c2cccc(Cl)c2)CN1C(=O)OCc1cnc2ccccc2c1 [Compound 13]"
  QUALITATIVE_LABEL: "Y"
- COMPOUND: "O=C(N[C@@H]1C[C@@H](C(=O)NC[C@@H]2CC(Br)=NO2)N(C(=O)OCc2cnc3ccccc3c2)C1)c1ccccc1 [Compound 1]"
  QUALITATIVE_LABEL: "N"
- COMPOUND: "O=C(NC[C@@H]1CC(Br)=NO1)[C@@H]1C[C@@H](c2ccc(Cl)cc2)CN1C(=O)OCc1cnc2ccccc2c1 [Compound 14]"
  QUALITATIVE_LABEL: "N"
- COMPOUND: "O=C(NC[C@@H]1CC(Br)=NO1)[C@@H]1C[C@@H](c2ccc(O)cc2)CN1C(=O)OCc1cnc2ccccc2c1 [Compound 12]"
  QUALITATIVE_LABEL: "Y"
